# Tested on: Con-NCI-H82 cell
# MEASUREMENT_DESCRIPTION: CellTiter-Glo cell viability, Con-NCI-H82 cell (empty-vector control)
# Assay type: cell-based, human
# SETTINGS: Homo sapiens, NCI-H82, NCI-H82 transfected with empty virus vector (control), intracellular ATP, read-out: inhibitory effect on Con-NCI-H82 (IC50)
pIC50: −log10 of the molar value.
PROPERTY_LABEL: pIC50

| COMPOUND | pIC50 |
| --- | --- |
| COc1ccc2c(c1OCCCCCCNC(=O)OC(C)(C)C)C(C1CCCC1)N1CCc3cc4c(cc3C1=C2)OCO4 (stereo not shown) [AB35455] | 5.95 |

I = CCCCCCCCC1=C2c3cc4c(cc3CCN2C(C(Cl)(Cl)Cl)c2c1ccc(OC)c2OC)OCO4 (stereo not shown) [AB35497]
II = COc1ccc2c(c1OCCCF)C(C)N1CCc3cc4c(cc3C1=C2)OCO4 (stereo not shown) [AB35485]
III = COc1ccc2c(c1N1CCN(C)CC1)C(C1CCCC1)N1CCc3cc4c(cc3C1=C2)OCO4 (stereo not shown) [AB35519]
Put the items in order so that reported pIC50 rises from first to last. Enter labels, ranked according to the request.
II, III, I
(II: 5.34, III: 5.66, I: 5.90)

====

# System: D341 Med
# MEASUREMENT_DESCRIPTION: CellTiter-Glo cell viability, brain tumor cell line D341 Med
# Format: cell-based
# SETTINGS: Homo sapiens, 72 h, cerebellar medulloblastoma cell, 3 days of culture, read-out: inhibitory effect on D341 Med (IC50)
// values below are reported pIC50
Please express pIC50 as -log10 of the molar concentration.

Examples from the recorded data:
| MOLECULE | REPORTED_MEASUREMENT |
| --- | --- |
| COc1ccc2c(c1OC)C(C1CCCC1)N1CCc3cc4c(cc3C1=C2)OCO4 (stereo not shown) | 6.01 |
| [2H]C([2H])([2H])Oc1c(OC)ccc2c1C(C1CCCC1)N1CCc3cc4c(cc3C1=C2)OCO4 (stereo not shown) | 6.12 |
| COc1ccc2c(c1OCCCCl)C(C(Cl)(Cl)Cl)N1CCc3cc4c(cc3C1=C2)OCO4 (stereo not shown) | 5.63 |
| C=CCOc1c(OC)ccc2c1C(C(Cl)(Cl)Cl)N1CCc3cc4c(cc3C1=C2)OCO4 (stereo not shown) | 5.51 |
| COc1ccc2c(c1OCCCBr)C(C1CCCC1)N1CCc3cc4c(cc3C1=C2)OCO4 (stereo not shown) | 5.88 |
| CCCOc1c(OC)ccc2c1C(C(Cl)(Cl)Cl)N1CCc3cc4c(cc3C1=C2)OCO4 (stereo not shown) | 5.78 |

Quick one: give measured pIC50 for COc1ccc2c(c1OC/C=C(\C)CCC=C(C)C)C(C(Cl)(Cl)Cl)N1CCc3cc4c(cc3C1=C2)OCO4 (stereo not shown)
6.12

====

# Tested on: sh-DNMT1 NCI-H82 cell
# MEASUREMENT_DESCRIPTION: CellTiter-Glo cell viability, sh-DNMT1 NCI-H82 cell (DNMT1 knocked down)
# Format: cell-based, human
# SETTINGS: Homo sapiens, NCI-H82, NCI-H82 with DNMT1 knocked down by shRNA, intracellular ATP, read-out: inhibitory effect on sh-DNMT1 NCI-H82 (IC50)
PROPERTY_LABEL: IC50 (µM)

| MOLECULE | TEST_SYSTEM | UNIT_ABBREV | IC50 |
| --- | --- | --- | --- |
| COc1ccc2c(c1OC)C(C(Cl)(Cl)Cl)N1CCc3cc4c(cc3C1=C2CCCc1ccccc1)OCO4 (stereo not shown) [AB35417] | sh-DNMT1 NCI-H82 cell | µM | 3.12 |
| COc1ccc2c(c1OCCCCl)CN1CCc3cc4c(cc3C1=C2)OCO4 [AB35543] | sh-DNMT1 NCI-H82 cell | µM | 3.12 |

P = CCCCCOc1c(OC)ccc2c1C(C(Cl)(Cl)Cl)N1CCc3cc4c(cc3C1=C2)OCO4 (stereo not shown) [AB35505]
Q = COc1ccc2c(c1OCCCCl)C(C1CCCCC1)N1CCc3cc4c(cc3C1=C2)OCO4 (stereo not shown) [AB35491]
Thinking about recorded IC50 values, which is higher, P or Q ? Returns: label corresponding to the selected item.
Q
(Q: 6.54 µM, P: 3.36 µM)

====

# System: Con-NCI-H82 cell
# MEASUREMENT_DESCRIPTION: CellTiter-Glo cell viability, Con-NCI-H82 cell (empty-vector control)
# Format: cell-based, human
# SETTINGS: Homo sapiens, NCI-H82, NCI-H82 transfected with empty virus vector (control), intracellular ATP, read-out: inhibitory effect on Con-NCI-H82 (IC50)
PROPERTY_LABEL: IC50 (nM)

Examples from the recorded data:
| MOLECULE | PROPERTY_LABEL | REPORTED_MEASUREMENT |
| --- | --- | --- |
| COc1ccc2c(c1OCCCCl)C(C1CCCC1)N1CCc3cc4c(cc3C1=C2)OCO4 (stereo not shown) [AB35434] | IC50 | 1680 |
| COc1ccc2c(c1OC)C(c1ccncc1)N1CCc3cc4c(cc3C1=C2)OCO4 (stereo not shown) [AB36488] | IC50 | 8230 |
| CCCC1=C2c3cc4c(cc3CCN2C(C2CCCC2)c2c1ccc(OC)c2OC)OCO4 (stereo not shown) [AB35504] | IC50 | 2220 |
| COc1ccc2c(c1OC)C(C1CCCCC1)N1CCc3cc4c(cc3C1=C2)OCO4 (stereo not shown) [AB31893] | IC50 | 1120 |
| CCCOc1c(OC)ccc2c1C(C(Cl)(Cl)Cl)N1CCc3cc4c(cc3C1=C2)OCO4 (stereo not shown) [AB35506] | IC50 | 830 |

a = COc1ccc2c(c1OC)CN1CCc3cc4c(cc3C1=C2Cc1ccc(C(C)C)cc1)OCO4 [AB31870]
b = COc1ccc2c(c1OCCN(C)C)C(C(Cl)(Cl)Cl)N1CCc3cc4c(cc3C1=C2)OCO4 (stereo not shown) [AB35446]
Thinking about recorded IC50 values, which is higher, a or b ? Returns: label corresponding to the selected item.
b
(b: 18400 nM, a: 530 nM)

====

# System: Con-NCI-H82 cell
# MEASUREMENT_DESCRIPTION: CellTiter-Glo cell viability, Con-NCI-H82 cell (empty-vector control)
# Type: cell-based, human
# SETTINGS: Homo sapiens, NCI-H82, NCI-H82 transfected with empty virus vector (control), intracellular ATP, read-out: inhibitory effect on Con-NCI-H82 (IC50)
pIC50: −log10 of the molar value.
PROPERTY_LABEL: pIC50

| MOLECULE | REPORTED_MEASUREMENT |
| --- | --- |
| COc1ccc2c(c1OCCNC(=O)OC(C)(C)C)C(C)N1CCc3cc4c(cc3C1=C2)OCO4 (stereo not drawn) | 5.30 |

I = COc1ccc2c(c1OCCCCCCNC(=O)OC(C)(C)C)C(C(Cl)(Cl)Cl)N1CCc3cc4c(cc3C1=C2)OCO4 (stereo not drawn)
II = COc1ccc2c(c1N1CCC(C)CC1)CN1CCc3cc4c(cc3C1=C2)OCCO4
I'm curious, which of these has a smaller pIC50 number: I or II ? Returns: label corresponding to the selected item.
I

====

# System: sh-DNMT1 NCI-H82 cell
# MEASUREMENT_DESCRIPTION: CellTiter-Glo cell viability, sh-DNMT1 NCI-H82 cell (DNMT1 knocked down)
# Assay type: cell-based, human
# SETTINGS: Homo sapiens, NCI-H82, NCI-H82 with DNMT1 knocked down by shRNA, intracellular ATP, read-out: inhibitory effect on sh-DNMT1 NCI-H82 (IC50)
pIC50: −log10 of the molar value.
PROPERTY_LABEL: pIC50

Examples from the recorded data:
| MOLECULE | REPORTED_MEASUREMENT |
| --- | --- |
| COc1c(OCCCCl)ccc2c1C(C1CCCC1)N1CCc3cc4c(cc3C1=C2)OCO4 (centres unmarked) | 5.22 |
| COc1ccc2c(c1OC)C(C(Cl)(Cl)Cl)N1CCc3cc4c(cc3C1=C2CCCCCCCl)OCO4 (centres unmarked) | 5.40 |
| COc1ccc2c(c1OCCCF)C(C(Cl)(Cl)Cl)N1CCc3cc4c(cc3C1=C2)OCO4 (centres unmarked) | 5.40 |
| [2H]C1([2H])c2c(ccc(OC)c2OC)C=C2c3cc4c(cc3CCN21)OCO4 | 5.43 |
| CCCCCCC1=C2c3cc4c(cc3CCN2C(C2CCCC2)c2c1ccc(OC)c2OC)OCO4 (centres unmarked) | 5.45 |

P = COc1ccc2c(c1OCCCCNC(=O)OC(C)(C)C)C(C(Cl)(Cl)Cl)N1CCc3cc4c(cc3C1=C2)OCO4 (centres unmarked)
Q = CCCCCC1=C2c3cc4c(cc3CCN2C(C(Cl)(Cl)Cl)c2c1ccc(OC)c2OC)OCO4 (centres unmarked)
I'm curious, which of these has a smaller pIC50 number: P or Q ? Returns: label corresponding to the selected item.
P
(P: 5.36, Q: 5.65)
